test: Antioxidant activity assessed as DPPH free radical scavenging activity treated with methanol after 50 mins; assay type: physicochemical
pIC50: −log10 of the molar value.
Quantity Name: pIC50

Known results for molecules:
INSERT INTO results (molecule, endpoint_value) VALUES
  ('O=C(O)[C@@H]1CSC(c2cccc(Cl)c2Cl)N1 (mixture of isomers)', 4.34),
  ('Cc1ccccc1C1N[C@H](C(=O)O)CS1 (mixture of isomers)', 4.34),
  ('COc1ccccc1C1N[C@H](C(=O)O)CS1 (mixture of isomers)', 3.47),
  ('Cc1cc(C(C)(C)C)c(O)c(C(C)(C)C)c1 [BUTYLATED HYDROXYTOLUENE]', 3.29);

a: O=C(O)[C@@H]1CSC(c2c(F)cccc2F)N1 (mixture of isomers)
b: O=C(O)[C@@H]1CSC(c2ccccc2Br)N1 (mixture of isomers)
c: N[C@@H](CS)C(=O)O [CYSTEINE]
d: O=C(O)[C@@H]1CSC(c2ccccc2)N1 (mixture of isomers)
# rank_down: sort by pIC50, max first Give the order by naming the labels one after another as requested.
c, b, a, d

====

experiment: Chemical stability in MeOH solution assessed as compound remaining at 20 uM after 20 mins by HPLC analysis; format: physicochemical
Quantity Name: Stability (%)

INSERT INTO measurements (molecule, endpoint_value) VALUES
  ('O=C(O)[C@@H]1CSC(c2cccc(F)c2F)N1 (mixture of isomers)', 100),
  ('COc1ccccc1C1N[C@H](C(=O)O)CS1 (mixture of isomers)', 98.6),
  ('O=C(O)[C@@H]1CSC(c2ccccc2Br)N1 (mixture of isomers)', 74);

I: O=C(O)[C@@H]1CSC(c2c(F)cccc2F)N1 (mixture of isomers)
II: O=C(O)[C@@H]1CSC(c2cccc(Cl)c2Cl)N1 (mixture of isomers)
III: Cc1ccccc1C1N[C@H](C(=O)O)CS1 (mixture of isomers)
rank_up(items): orders items by reported Stability in ascending numerical order. Record the ranking as a list of labels in the requested order.
III, II, I
(III: 4.1%, II: 25.2%, I: 99.4%)

====

experiment: Chemical stability in PBS buffer assessed as compound remaining at 20 uM measured immediately post treatment by HPLC analysis; format: physicochemical; conditions: read-out: Stability
Quantity Name: remaining at 0 min, 20 µM (%)

1: O=C(O)[C@@H]1CSC(c2cccc(F)c2F)N1 (mixture of isomers)
2: O=C(O)[C@@H]1CSC(c2ccccc2Br)N1 (mixture of isomers)
Could you check which of 1 and 2 has a smaller value for remaining at 0 min, 20 µM? # reply format: chosen label
2
(2: 11.6%, 1: 92.7%)

====

test: Antioxidant activity assessed as cupric ion reducing activity treated with 5% DMSO measured as ratio of sample to trolox molar extinction coefficient after 20 mins by CUPRAC assay; type: physicochemical
Quantity Name: Ratio

Examples with answers:
INSERT INTO results (compound, endpoint_value) VALUES
  ('O=C(O)[C@@H]1CSC(c2cccc(Cl)c2Cl)N1 (mixture of isomers)', 0.99),
  ('O=C(O)[C@@H]1CSC(c2ccccc2)N1 (mixture of isomers)', 0.99),
  ('O=C(O)[C@@H]1CSC(c2c(F)cccc2F)N1 (mixture of isomers)', 1.05),
  ('Cc1ccccc1C1N[C@H](C(=O)O)CS1 (mixture of isomers)', 0.75);

I: O=C(O)[C@@H]1CSC(c2cccc(F)c2F)N1 (mixture of isomers)
II: N[C@@H](CS)C(=O)O [CYSTEINE]
Response body: label of entry with the larger Ratio; valid values I , II . Respond using the label that marks the chosen record.
I
(I: 0.84, II: 0.49)

====

assay: Antioxidant activity assessed as cupric ion reducing activity treated with MeOH solution measured as ratio of sample to trolox molar extinction coefficient after 20 mins by CUPRAC assay; type: physicochemical
Quantity Name: Ratio

INSERT INTO assay_data (compound, quantity_name, endpoint_value) VALUES
  ('O=C(O)[C@@H]1CSC(c2ccc([N+](=O)[O-])cc2)N1 (mixture of isomers)', 'Ratio', 0.74),
  ('O=C(O)[C@@H]1CSC(c2c(F)cccc2F)N1 (mixture of isomers)', 'Ratio', 0.83),
  ('O=C(O)[C@@H]1CSC(c2ccc(Cl)cc2)N1 (mixture of isomers)', 'Ratio', 1.52),
  ('Cc1ccc(C2N[C@H](C(=O)O)CS2)cc1 (mixture of isomers)', 'Ratio', 1.22),
  ('O=C(O)[C@@H]1CSC(c2cccc(Cl)c2Cl)N1 (mixture of isomers)', 'Ratio', 0.93);

1: O=C(O)[C@@H]1CSC(c2cccc(Cl)c2)N1 (mixture of isomers)
2: COc1ccccc1C1N[C@H](C(=O)O)CS1 (mixture of isomers)
Param pair: 1 , 2 . Output: the one whose Ratio is numerically greater. Respond using the label that marks the chosen record.
1
(1: 1.5, 2: 0.96)

====

experiment: Chemical stability in MeOH solution assessed as compound remaining at 20 uM after 50 mins by HPLC analysis; assay type: physicochemical
Quantity Name: Stability (%)

INSERT INTO assay_data (compound, endpoint_value) VALUES
  ('O=C(O)[C@@H]1CSC(c2ccccc2)N1 (mixture of isomers)', 95.4),
  ('COc1ccccc1C1N[C@H](C(=O)O)CS1 (mixture of isomers)', 97.3),
  ('O=C(O)[C@@H]1CSC(c2c(F)cccc2F)N1 (mixture of isomers)', 98.2),
  ('O=C(O)[C@@H]1CSC(c2ccccc2Br)N1 (mixture of isomers)', 75.6);

A: O=C(O)[C@@H]1CSC(c2cccc(F)c2F)N1 (mixture of isomers)
B: O=C(O)[C@@H]1CSC(c2cccc(Cl)c2Cl)N1 (mixture of isomers)
C: Cc1ccccc1C1N[C@H](C(=O)O)CS1 (mixture of isomers)
Which order do these items take when sorted by rising Stability? List them. Reply: labels, ordered per the request.
C, B, A
(C: 4.2%, B: 38.2%, A: 98.8%)

====

test: Chemical stability in 0.1 M phosphoric acid at pH 2 assessed as compound remaining at 20 uM after 20 mins by HPLC analysis; assay type: physicochemical; settings: read-out: Stability
Quantity Name: remaining at 20 min, 20 µM (%)

The cases that follow already have their remaining at 20 min, 20 µM on record.
INSERT INTO results (compound, endpoint_value) VALUES
  ('COc1ccccc1C1N[C@H](C(=O)O)CS1 (mixture of isomers)', 78.9),
  ('Cc1ccccc1C1N[C@H](C(=O)O)CS1 (mixture of isomers)', 11.3),
  ('O=C(O)[C@@H]1CSC(c2c(F)cccc2F)N1 (mixture of isomers)', 72.3);

A: O=C(O)[C@@H]1CSC(c2cccc(Cl)c2Cl)N1 (mixture of isomers)
B: O=C(O)[C@@H]1CSC(c2ccccc2)N1 (mixture of isomers)
Would you let me know which has the greater remaining at 20 min, 20 µM value, A or B ? // output: label of the selected item
B

1: O=C(O)[C@@H]1CSC(c2cccc(F)c2F)N1 (mixture of isomers)
2: O=C(O)[C@@H]1CSC(c2ccccc2Br)N1 (mixture of isomers)
Returns: the argument ( 1 or 2 ) having the larger remaining at 20 min, 20 µM. Returns: label corresponding to the selected item.
1
(1: 64.6%, 2: 11.5%)

====

experiment: Chemical stability in 5% aqueous DMSO assessed as compound remaining at 20 uM after 20 mins by HPLC analysis; assay type: physicochemical; conditions: read-out: Stability
Quantity Name: remaining at 20 min, 20 µM (%)

Some solved cases for reference:
INSERT INTO results (compound, quantity_name, endpoint_value) VALUES
  ('O=C(O)[C@@H]1CSC(c2c(F)cccc2F)N1 (mixture of isomers)', 'remaining at 20 min, 20 µM', 39.2),
  ('O=C(O)[C@@H]1CSC(c2cccc(F)c2F)N1 (mixture of isomers)', 'remaining at 20 min, 20 µM', 50),
  ('COc1ccccc1C1N[C@H](C(=O)O)CS1 (mixture of isomers)', 'remaining at 20 min, 20 µM', 43.9),
  ('O=C(O)[C@@H]1CSC(c2ccccc2)N1 (mixture of isomers)', 'remaining at 20 min, 20 µM', 27.8);

1: O=C(O)[C@@H]1CSC(c2ccccc2Br)N1 (mixture of isomers)
2: Cc1ccccc1C1N[C@H](C(=O)O)CS1 (mixture of isomers)
Param pair: 1 , 2 . Output: the one whose remaining at 20 min, 20 µM is numerically greater. The response must carry the label of the picked entry.
1
(1: 16.2%, 2: 5.9%)

====

test: Chemical stability in 0.1 M phosphoric acid at pH 2 assessed as compound remaining at 20 uM measured immediately post treatment by HPLC analysis; type: physicochemical; settings: read-out: Stability
Quantity Name: remaining at 0 min, 20 µM (%)

INSERT INTO assay_data (molecule, quantity_name, unit, endpoint_value) VALUES
  ('O=C(O)[C@@H]1CSC(c2ccccc2Br)N1 (mixture of isomers)', 'remaining at 0 min, 20 µM', '%', 14.1),
  ('COc1ccccc1C1N[C@H](C(=O)O)CS1 (mixture of isomers)', 'remaining at 0 min, 20 µM', '%', 92.9),
  ('O=C(O)[C@@H]1CSC(c2ccccc2)N1 (mixture of isomers)', 'remaining at 0 min, 20 µM', '%', 85),
  ('O=C(O)[C@@H]1CSC(c2c(F)cccc2F)N1 (mixture of isomers)', 'remaining at 0 min, 20 µM', '%', 96.2);

a: O=C(O)[C@@H]1CSC(c2cccc(F)c2F)N1 (mixture of isomers)
b: O=C(O)[C@@H]1CSC(c2cccc(Cl)c2Cl)N1 (mixture of isomers)
c: Cc1ccccc1C1N[C@H](C(=O)O)CS1 (mixture of isomers)
Descending sort on remaining at 0 min, 20 µM required. Form field (ranking): labels in requested order.
a, b, c
(a: 87.3%, b: 21.7%, c: 12.9%)
